- Experiment Summary: Extrapolated human dosimetry (OLINDA/EXM, ICRP-89 phantoms)
- Conditions: ICRP 89 Adult Female, extrapolated
Recorded measurements of Absorbed dose (AD average) Adrenals, one per entry
Please give a number only; it is taken to be in mGy/Mbq.

INSERT INTO assay_data (compound, value_observed) VALUES
  ('N#C[C@@H]1CC(F)(F)CN1C(=O)CNC(=O)c1ccnc2ccc(OCCCCNC(=O)CC[C@H](NC(=O)CCC(C(=O)O)N3CCN(CC(=O)[O-])CCN(CC(=O)[O-])CCN(CC(=O)[O-])CC3)C(=O)NCCCCOc3ccc4nccc(C(=O)NCC(=O)N5CC(F)(F)C[C@H]5C#N)c4c3)cc12.[161Tb+3] (stereo partly drawn) [[^161Tb]Tb-DOTAGA.Glu.(FAPI)2]', '2.06E-02'),
  ('N#C[C@@H]1CC(F)(F)CN1C(=O)CNC(=O)c1ccnc2ccc(OCCCCNC(=O)CC[C@H](NC(=O)CN3CCN(CC(=O)[O-])CCN(CC(=O)[O-])CCN(CC(=O)[O-])CC3)C(=O)NCCCCOc3ccc4nccc(C(=O)NCC(=O)N5CC(F)(F)C[C@H]5C#N)c4c3)cc12.[161Tb+3] [[^161Tb]Tb-DO3A.Glu.(FAPI)2]', '1.39E-02');

Shift focus to the following entry.
I have this compound here, N#C[C@@H]1CC(F)(F)CN1C(=O)CNC(=O)c1ccnc2ccc(OCCCCNC(=O)CC[C@H](NC(=O)CCC(C(=O)O)N3CCN(CC(=O)[O-])CCN(CC(=O)[O-])CCN(CC(=O)[O-])CC3)C(=O)NCCCCOc3ccc4nccc(C(=O)NCC(=O)N5CC(F)(F)C[C@H]5C#N)c4c3)cc12.[177Lu+3] (stereo partly drawn) [[^177Lu]Lu-DOTAGA.Glu.(FAPI)2] , and I need its recorded Absorbed dose (AD average) Adrenals. 1.46E-02

* * *

- Experiment Summary: Extrapolated human dosimetry (OLINDA/EXM, ICRP-89 phantoms)
- Conditions: ICRP 89 Adult Female, extrapolated
Measurement Type: Absorbed dose (AD average) Esophagus
Include the unit right after the number.

Take a look at these entries with their results.
INSERT INTO results (molecule, measurement_type, value_observed) VALUES
  ('N#C[C@@H]1CC(F)(F)CN1C(=O)CNC(=O)c1ccnc2ccc(OCCCCNC(=O)CC[C@H](NC(=O)CN3CCN(CC(=O)[O-])CCN(CC(=O)[O-])CCN(CC(=O)[O-])CC3)C(=O)NCCCCOc3ccc4nccc(C(=O)NCC(=O)N5CC(F)(F)C[C@H]5C#N)c4c3)cc12.[177Lu+3] [[^177Lu]Lu-DO3A.Glu.(FAPI)2]', 'Absorbed dose (AD average) Esophagus', '2.66E-02 mGy/Mbq'),
  ('N#C[C@@H]1CC(F)(F)CN1C(=O)CNC(=O)c1ccnc2ccc(OCCCCNC(=O)CC[C@H](NC(=O)CCC(C(=O)O)N3CCN(CC(=O)[O-])CCN(CC(=O)[O-])CCN(CC(=O)[O-])CC3)C(=O)NCCCCOc3ccc4nccc(C(=O)NCC(=O)N5CC(F)(F)C[C@H]5C#N)c4c3)cc12.[177Lu+3] (stereo partly shown) [[^177Lu]Lu-DOTAGA.Glu.(FAPI)2]', 'Absorbed dose (AD average) Esophagus', '3.06E-02 mGy/Mbq');

I have this molecule here, N#C[C@@H]1CC(F)(F)CN1C(=O)CNC(=O)c1ccnc2ccc(OCCCCNC(=O)CC[C@H](NC(=O)CCC(C(=O)O)N3CCN(CC(=O)[O-])CCN(CC(=O)[O-])CCN(CC(=O)[O-])CC3)C(=O)NCCCCOc3ccc4nccc(C(=O)NCC(=O)N5CC(F)(F)C[C@H]5C#N)c4c3)cc12.[161Tb+3] (stereo partly shown) [[^161Tb]Tb-DOTAGA.Glu.(FAPI)2] , and I need its recorded Absorbed dose (AD average) Esophagus. 4.21E-02 mGy/Mbq

I have this molecule here, N#C[C@@H]1CC(F)(F)CN1C(=O)CNC(=O)c1ccnc2ccc(OCCCCNC(=O)CC[C@H](NC(=O)CN3CCN(CC(=O)[O-])CCN(CC(=O)[O-])CCN(CC(=O)[O-])CC3)C(=O)NCCCCOc3ccc4nccc(C(=O)NCC(=O)N5CC(F)(F)C[C@H]5C#N)c4c3)cc12.[161Tb+3] [[^161Tb]Tb-DO3A.Glu.(FAPI)2] , and I need its recorded Absorbed dose (AD average) Esophagus. 3.67E-02 mGy/Mbq
